Molecular target: T1, Human CD33 full length, expressed on HEK293F cells (human, UniProt P20138 18-364)
T1 construct: HEK293F cells transduced with lentivirus containing full length human CD33; also called huCD33
T1 sequence (P20138 18-364 limits assumed): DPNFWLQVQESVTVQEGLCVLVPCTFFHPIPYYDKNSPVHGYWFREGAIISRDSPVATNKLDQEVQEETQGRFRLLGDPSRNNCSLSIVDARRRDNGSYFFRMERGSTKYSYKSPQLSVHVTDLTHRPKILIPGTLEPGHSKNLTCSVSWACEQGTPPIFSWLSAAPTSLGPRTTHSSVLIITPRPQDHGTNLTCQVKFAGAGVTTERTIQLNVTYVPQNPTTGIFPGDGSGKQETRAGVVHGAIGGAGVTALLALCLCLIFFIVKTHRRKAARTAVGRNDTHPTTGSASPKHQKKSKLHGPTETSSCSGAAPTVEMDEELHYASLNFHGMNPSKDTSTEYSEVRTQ
Assay: flow cytometry, HEK293F cells expressing human CD33
Measured MFI at 0 nM mAb (background) accompanies every entry in the list below.
Report as a plain number; the unit MFI is understood.

Solved entries (count: 5):
C33B63 (antibody, IgG1, V domains shown, huIgG1 F405L; also called C33F68; C33H51/C33L34) VH: QLQLQESGPGLVKPSETLSLTCTVSGGSISTGRYYWGWIRQPPGKGVIWIGNIYYSGNTYYNPSLKSRVTISVDTSKNQFSLKLNSVTAADTAVYYCARLGSLVVVPAAMSFDYWGQGTLVTVSS VL: SYELTQPPSVSVSPGQTASITCSGDKLGDKYACWYQLRPGQSPILVIYQDSNRPSGIPERFSGSNSGNTATLTISGTQAMDEADYYCQAWDSSTWVFGGGTKLTVL; 86.3
C33B46 (antibody, IgG1, V domains shown, huIgG1 F405L; also called C33F51; C33H108/C33L74) VH: QVQLVQSGSELKKPGASVKVSCKASGYTFSTYAMNWVRQAPGQGLEWMGWINTNTGNPTYAQGFTGRFVFSLDTSVSTAYLQISSLKAEDTAVYYCARDRDRGTDYWGQGTLVTVSS VL: QSALTQPASVSGSPGQSITISCTGTSSDVGDDNYVSWYQQHPGKAPKLMIYDVSNRPSGVSNRFSGSKSGNTASLTISGLQSEDEADYYCSSYSSSTTLEVFGGGTKLTVL; 135
C33B72 (antibody, IgG1, V domains shown, huIgG1 F405L; also called C33F77; C33H65/C33L47) VH: QVQLVESGGGVVQPGRSLRLSCAASGFTFSSYGMHWVRQAPGKGLEWVVVISYDGSNKYYADSVKGRFTISRDNSKNTLYLQMNSLRAEDTAVYYCAKDFRDFDWLPPDSTSYHGMDVWGQGTTVTVSS VL: SYELTQPPSVSVSPGQTASITCSGDKLGDKYACWYQQKPGQSPVVVIYQDRKRPSGIPERFSGSNFGNTATLTISGTQAMDEADYYCQAWDSSTVVFGGGTKLTVL; 93.3
C33B101 (antibody, V domains shown, huIgG1 F405L; 260 is used; also called C33F106; C33H69/C4LL152) VH: QLQLQESGPGLVKPSETLSLTCTVSGGSISSSSYYWGWIRQPPGKGLDWIGSINYSGSTYYNPSLKSRVTISVDTSKIQFSLKLRSVTAADTAVYYCARLDGYESPFDYWGQGTLVTVSS VL: DIQMTQSPSSVSASVGDRVTITCRASQGISSWLAWYQQKPGKAPKLLIYAASSLQSGVPSRFSGSGSGTDFTLTISSLQPEDFATYYCQQANSFPFTFGPGTKVDIK; 70.1
C33B73 (antibody, IgG1, V domains shown, huIgG1 F405L; also called C33F78; C33H66/C33L60) VH: QVQLVESGGGVVQPGRSLRLSCVASGFTFSSYGMHWVRQAPGKGLEWVAVISYDGSNKYYADSVKGRFTISRDNSKNTLYLQMNSLRAEGTAVYYCAKDFRSFDWLPPDSASYHGMDVWGQGTTVTVSS VL: SYELTQPPSVSVSPGQTASITCSGDKLGDKYACWYQQKPGQSPVLVIYQDGKRPSGIPERFSGSNFGNKATLTISGTQAMDEADYYCQAWDRNTVVFGGGTKLTVL; 94

Looking up C33B88 (antibody, IgG1, V domains shown, huIgG1 F405L; also called C33F93; C33H88/C33L61) VH: QVQLVQSGSELKKPGASVKVSCKASGYTLTRSAMNWVRQAPGQGLEWMGWINTNTGNPTYAQGFTGRFVFSLDTSVNTAYLLISSLKTEDTAVYYCASDILPGYHEDYWGQGTLVTVSS VL: QSALTQPASVSGSPGQSITISCTGINSDVGSYDLVSWYQQHPGKAPKLLIYDGSERPSGVFGRFSGSKSDNTTSLTISGLQAEDEAAYYCCSYEVTTTYVVFGGGTKLTVL , I found its MFI at 0 nM mAb (background) recorded as 94.8

Looking up C33B82 (antibody, IgG1, V domains shown, huIgG1 F405L; also called C33F87; C33H78/C33L57) VH: QVQLVESGGGVVQPGRSLRLSCAASGFTFSSYGMHWVRQAPGKGLEWVAVISYDGSNKYYADSVKGRFTISRDNSKNTLFLQMNSLRAEDTAVYYCAKDFRYFDWLPPDSSSYYGMDVWGQGTTVTVSS VL: SYELTQPPSVSVSPGQTASITCSGDELGNKYACWYQQKPGQSPVVVVYQDRKRPSGIPERFSGSNFGNTATLTISGTQAMDEADYYCQAWDSSTVVFGGGTKLTVL , I found its MFI at 0 nM mAb (background) recorded as 73.4

Looking up C33B55 (antibody, IgG1, V domains shown, huIgG1 F405L; also called C33F60; C33H45/C33L11) VH: QVQLVESGGGVVQPGRSLRLSCAASGFTFSSYGMHWVRQSPGKGLEWVAVISYDGSNKYCADSVKGRFTISRDNSKSTLYLQMNSLRAEDTAVYYCAKDFRSLDWLPPDSTSYDGMDVWGQGTTVTVSS VL: SYELTQPPSVSVSPGQTASITCSGHKLGDKYACWYQQKPGQSPVVVIYKDSKRPSGIPERFSGSNFGNTATLTISGTQAMDEADYYCQAWDSSTVVFGGGTKLTVL , I found its MFI at 0 nM mAb (background) recorded as 105

Looking up C33B80 (antibody, IgG1, V domains shown, huIgG1 F405L; also called C33F85; C33H76/C33L39) VH: EVQLLESGGGLVQPGGSLRLSCAASGFTFNYAMSWVRQAPGKGLEWVSAISGSGGSTYYADSVKGRFTISRDISKNTLYLQMNSLRAEDTAVYYCARTYNSGYYDGDFDYWGQGTLVTVSS VL: QSALTQPASVSGSPGQSIPISSTGTSSDDGKNNIVSWYQQHPGKAPKLMIYKDSKRPSGVSNRFSGSKSGNTASLTISGLQADDEADYHCCSYAGASNHVVFGGGTKLTVL , I found its MFI at 0 nM mAb (background) recorded as 88.9

Looking up C33B79 (antibody, IgG1, V domains shown, huIgG1 F405L; also called C33F84; C33H74/C33L38) VH: QVQLVESGGGVVQPGRSLRLSCAASRFTFSSYGMHWVRQAPGKGLEWVAVISYDGSNKYYADSVKGRFTISRDNSKNTLYLQMNSLRAEDTAVHYCAKDFRSFDWLPPDSASYHGMDVWGQGTTVTVSS VL: SYELTQPPSVSVPPGQTASITCSGDKLGDKYACWYQQKPGQSPVLVIYQDNKRPSGIPERFSGSNSGNTATLTISGTQAMDEADYYCQAWGRNTVVFGGGTKLTVL , I found its MFI at 0 nM mAb (background) recorded as 77.8
